# System: HEL cells
# condition.label: anti-VZV table
endpoint.label: MTC (HEL)

Give its MTC (HEL) value. Item: CCCCc1ccc(CNCC(=O)N2CCN(C(=O)C3NC(=O)C4NC(=O)C(NC(=O)C5NC(=O)C6NC(=O)C(Cc7ccc(c(Cl)c7)Oc7cc5cc(c7O)Oc5ccc(cc5Cl)C4O)NC(=O)C(N)c4ccc(O)c(c4)Oc4cc(O)cc6c4)c4ccc(O)c(c4)-c4c(O)cc(O)cc43)CC2)cc1 (stereo not shown) [Compound 46]
20 to 80 µM

====

# System: CMV
# test.description: Anti-CMV assay: virus-induced cytopathicity in HEL cell cultures
# condition.label: read-out: EC50 CMV AD-169; CMV strain AD-169, HEL cell cultures
pEC50: −log10 of the molar value.
endpoint.label: pEC50

Give its pEC50 value. Item: CCCCCCCCCC[N+](C)(C)CCCNC(=O)C1NC(=O)C2NC(=O)C(NC(=O)C3NC(=O)C4NC(=O)C(Cc5ccc(c(Cl)c5)Oc5cc3cc(c5O)Oc3ccc(cc3Cl)C2O)NC(=O)C(N)c2ccc(O)c(c2)Oc2cc(O)cc4c2)c2ccc(O)c(c2)-c2c1cc(O)c(CN1CC[N+](C)(CCCCCCCCCC)CC1)c2O (stereo not drawn) [Compound 39]
< 5.70

More entries:
Give its pEC50 value. Item: CCCCc1ccc(CN2CCN(Cc3c(O)cc4c(c3O)-c3cc(ccc3O)C3NC(=O)C5NC(=O)C6NC(=O)C(Cc7ccc(c(Cl)c7)Oc7cc5cc(c7O)Oc5ccc(cc5Cl)C(O)C(NC3=O)C(=O)NC4C(=O)NC)NC(=O)C(N)c3ccc(O)c(c3)Oc3cc(O)cc6c3)CC2)cc1 (stereo not drawn) [Compound 31]
≤ 4.70

Note, next up: CCCCCCCCCC[N+](C)(C)CCCNCc1c(O)cc2c(c1O)-c1cc(ccc1O)C1NC(=O)C3NC(=O)C4NC(=O)C(Cc5ccc(c(Cl)c5)Oc5cc3cc(c5O)Oc3ccc(cc3Cl)C(O)C(NC1=O)C(=O)NC2C(=O)NCCC[N+](C)(C)CCCCCCCCCC)NC(=O)C(N)c1ccc(O)c(c1)Oc1cc(O)cc4c1 (stereo not drawn) [Compound 37]
< 5.30

====

We begin with a simple list: items and their reported CC50.
# Test system: FCK cells
# condition.label: read-out: CC50 FCK; FCK cells

Give its CC50 value. Item: CCCCc1ccc(CN2CCN(Cc3c(O)cc4c(c3O)-c3cc(ccc3O)C3NC(=O)C5NC(=O)C6NC(=O)C(Cc7ccc(c(Cl)c7)Oc7cc5cc(c7O)Oc5ccc(cc5Cl)C(O)C(NC3=O)C(=O)NC4C(=O)NC)NC(=O)C(N)c3ccc(O)c(c3)Oc3cc(O)cc6c3)CC2)cc1 (stereo not shown) [Compound 31]
≥ 20 µM

Note, next up: NC(=O)CC1NC(=O)C(NC(=O)C(N)Cc2c[nH]c3ccccc23)C(O)c2ccc(c(Cl)c2)Oc2cc3cc(c2O)Oc2ccc(cc2)C(O)C2NC(=O)C(NC(=O)C3NC1=O)c1ccc(O)c(c1)-c1c(O)cc(O)cc1C(C(=O)O)NC2=O (stereo not shown) [Compound 109]
> 100 µM

Note, next up: NC1C(=O)NC2Cc3ccc(c(Cl)c3)Oc3cc4cc(c3O)Oc3ccc(cc3Cl)C(O)C3NC(=O)C(NC(=O)C4NC(=O)C(NC2=O)c2cc(O)cc(c2)Oc2cc1ccc2O)c1ccc(O)c(c1)-c1c(O)cc(O)cc1C(C(=O)NCc1ccc(F)cc1)NC3=O (stereo not shown) [Compound 165]
80 µM

Note, next up: CNC(CC(C)C)C(=O)NC1C(=O)NC(CC(N)=O)C(=O)NC2C(=O)NC3C(=O)NC(C(=O)NC(C(=O)NCc4ccc(F)cc4)c4cc(O)cc(O)c4-c4cc3ccc4O)C(O)c3ccc(cc3)Oc3cc2cc(c3O)Oc2ccc(cc2Cl)C1O (stereo not shown) [Compound 100]
> 100 µM

More entries:
Give its CC50 value. Item: CCCCc1ccc(CNC2C(Oc3c4cc5cc3Oc3ccc(cc3Cl)C(O)C3NC(=O)C(NC(=O)C5NC(=O)C5NC(=O)C(Cc6ccc(cc6)O4)NC(=O)C(NC)c4ccc(O)c(c4)Oc4cc(O)c(Cl)c5c4)c4ccc(O)c(c4)-c4c(cc(O)c(CN5CCN(Cc6ccc(-c7ccccc7)cc6)CC5)c4O)C(C(=O)NCCCN(C)C)NC3=O)OC(C(=O)NCCCN(C)C)C(O)C2O)cc1 (stereo not shown) [Compound 13]
30 µM

Note, next up: CCCCCCCCCCCCCCCCCCNCc1c(O)cc2c(c1O)-c1cc(ccc1O)C1NC(=O)C3NC(=O)C(CC(N)=O)NC(=O)C(NC(=O)C(CC(C)C)NC)C(O)c4ccc(c(Cl)c4)Oc4cc3cc(c4OC3OC(CO)C(O)C(O)C3OC3CC(C)(N)C(O)C(C)O3)Oc3ccc(cc3)C(OC3CC(C)(N)C(O)C(C)O3)C(NC1=O)C(=O)NC2C(=O)O (stereo not shown) [Compound 63]
15 µM

Note, next up: CCCCc1ccc(CNCc2c(O)cc3c(c2O)-c2cc(ccc2O)C2NC(=O)C4NC(=O)C5NC(=O)C(Cc6ccc(c(Cl)c6)Oc6cc4cc(c6O)Oc4ccc(cc4Cl)C(O)C(NC2=O)C(=O)NC3C(=O)NC)NC(=O)C(NC(=O)OC(C)(C)C)c2ccc(O)c(c2)Oc2cc(O)cc5c2)cc1 (stereo not shown) [Compound 47]
> 50 µM
